assay: chemical genetic growth profiling, strain panel (AID 1159580);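 also: tested at 20 µM; growth read once vehicle control cultures reached saturation at 30 °C; 1 = growth at the plate median or of vehicle wells; lower values mean less growth of the strain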; conditions: S. cerevisiae deletion strains, growth OD, locus YJL187C, strain SWE1
About 2,000 (36%) of roughly 5,500 compounds were called active. Roughly 18% stayed inconclusive and do not appear here. Rule as the data show it: active = normalized growth mostly below about 0.91 (no sharp cut-off); inconclusive = no clear call, values can overlap the other calls; inactive = mostly above about 0.92. The list shows a part of the results.
# output must be one of class 1 = active, class 0 = inactive

Just curious, what result did `CC(=O)/C(=C\c1ccccc1)CC(=O)O` get here?
class 0

Just curious, what result did `Oc1c(Cl)cc(Cl)c2cccnc12` get here?
class 1

Just curious, what result did CC1(C)CCCC2(C)C3C1[C@@H](O)C2(C)C[C@H]3O (some centres not stated) get here?
class 0

Just curious, what result did `Clc1cc(Cl)cc(-n2cccc2)c1` get here?
class 0

Just curious, what result did O=C1O[C@H](C(O)CO)C(O)=C1O (some centres not stated) get here?
class 0

Just curious, what result did CC(=O)O[C@@H]1C[C@@]2(C)[C@H](c3ccoc3)C[C@H]3O[C@]32[C@]2(C)C(=O)C(O)=C3C(C)(C)C(=O)C=C[C@]3(C)C12 (some centres not stated) get here?
class 0

Just curious, what result did `COC(=O)c1cc([N+](=O)[O-])ccc1NC(C)=O` get here?
class 0

Just curious, what result did `CCOc1ccc(/C=C(\C)[N+](=O)[O-])cc1OC` get here?
class 1

Just curious, what result did `O=C(O)/C=C/C=C/c1ccccc1` get here?
class 1

Just curious, what result did O=c1[nH]c(=O)n(C2C[C@@H](O)[C@@H](CO)O2)cc1F (some centres not stated) get here?
class 0

Just curious, what result did `CCN(CC)CCOc1ccc2c(c1)C(=O)c1cc(OCCN(CC)CC)ccc1-2` get here?
class 0

Just curious, what result did `CC(=O)N/C(=C/c1ccc2c(c1)OCO2)C(=O)O` get here?
class 0

Just curious, what result did `NC(N)=NC(N)=Nc1cc(C(F)(F)F)cc(C(F)(F)F)c1` get here?
class 0

Just curious, what result did `O=C(COC(=O)c1ccccc1Nc1ccccc1)c1ccc(Cl)cc1` get here?
class 0

Just curious, what result did CC(C)(C)NCC(O)c1ccccc1Cl (configuration not stated) get here?
class 0

Just curious, what result did `O=[N+]([O-])c1cc([As](=O)(O)O)ccc1O` get here?
class 0

Just curious, what result did C=CC(C1=CC(=O)C(OC)=CC1=O)c1ccc(O)cc1 (configuration not stated) get here?
class 0

Just curious, what result did `O=C(NCCSCc1ccco1)c1ccc(Cl)cc1` get here?
class 0

Just curious, what result did O=C(O)CCCCC1CCSS1 (configuration not stated) get here?
class 0

Just curious, what result did `CCCc1cc(Br)c(-n2cccc2)c(Br)c1` get here?
class 0

Just curious, what result did Nc1ncnc2c1ncn2C1C[C@H](O)[C@@H](CO)O1 (some centres not stated) get here?
class 0

Just curious, what result did `CC(=O)Nc1cc([As](=O)(O)O)ccc1O` get here?
class 0

Just curious, what result did `CCN(CC)CCNC(=O)c1cc(S(C)(=O)=O)ccc1OC` get here?
class 0

Just curious, what result did CC(=O)c1c(O)c(C)c(O)c2c1OC1=CC(=O)C(C(C)=O)C(=O)C12C (configuration not stated) get here?
class 0

Just curious, what result did Cc1c(O)c(O)cc2c1CC=C1[C@@]2(C)CC[C@@]2(C)C3C[C@](C)(C(=O)O)CC[C@]3(C)CC[C@]12C (some centres not stated) get here?
class 1

Just curious, what result did C=C(NC(=O)C(=C)NC(=O)c1csc(C2=NC3c4csc(n4)C4NC(=O)c5csc(n5)C(C(C)(O)C(C)O)NC(=O)C5CSC(=N5)C(=CC)NC(=O)C(C(C)O)NC(=O)c5csc(n5)C3(CC2)NC(=O)C(C)NC(=O)C(=C)NC(=O)C(C)NC(=O)C(C(C)CC)NC2C=Cc3c(C(C)O)cc(nc3C2O)C(=O)OC4C)n1)C(N)=O (configuration not stated) get here?
class 0

Just curious, what result did `O=C(N/N=C\C=C\c1ccccc1)c1ccccc1-n1cccc1` get here?
class 0

Just curious, what result did `Nc1ncnc2c1ncn2[C@@H]1O[C@H](CO)[C@@H](O)[C@H]1O` get here?
class 0

Just curious, what result did `Cc1ccc2c(Cl)cc(Cl)c(O)c2n1` get here?
class 0

Just curious, what result did COc1ccccc1OCCNCC(O)COc1cccc2[nH]c3ccccc3c12 (configuration not stated) get here?
class 0

Just curious, what result did `COc1cc(C(=O)NCc2ccc(OCCN(C)C)cc2)cc(OC)c1OC` get here?
class 0

Just curious, what result did `Cc1ccc(/C(=C\CN2CCCC2)c2ccccn2)cc1` get here?
class 0

Just curious, what result did `O=C(N/N=C\c1cccs1)c1ccccc1CO` get here?
class 0

Just curious, what result did `C1CNCCN1` get here?
class 0

Just curious, what result did C=CC(C1=CC(=O)C(OC)=CC1=O)c1ccc(OC)cc1 (configuration not stated) get here?
class 1

Just curious, what result did `CC(=O)NCCCCCC(=O)O` get here?
class 0

Just curious, what result did Nc1ncnc2c1ncn2C1O[C@H](COP(=O)(O)O)[C@@H](O)[C@H]1O (some centres not stated) get here?
class 0

Just curious, what result did `CN/C(=C\[N+](=O)[O-])NCCSCc1ccc(CN(C)C)o1` get here?
class 0

Just curious, what result did `CC(C)=CCC/C(C)=C/CC/C(C)=C/CC/C(C)=C/CC/C(C)=C/CC/C(C)=C/CC/C(C)=C/CC/C(C)=C/CC/C(C)=C/CO` get here?
class 0

Just curious, what result did `Cc1c(Nc2ncccc2C(=O)O)cccc1C(F)(F)F` get here?
class 0

Just curious, what result did `O=C(O)C1=CCNCC1` get here?
class 0

Just curious, what result did C=C(C)C1CC=C(CO)CC1 (configuration not stated) get here?
class 0

Just curious, what result did C=CC(C1=CC(=O)C=CC1=O)c1ccccc1 (configuration not stated) get here?
class 0

Just curious, what result did `Nc1ccc(S(=O)(=O)Nc2ccc(Cl)nn2)cc1` get here?
class 0

Just curious, what result did `O=C(NCCSCc1ccc(Cl)cc1)c1ccc(Cl)cc1` get here?
class 1

Just curious, what result did `Cc1c(-c2ccnc(N)n2)nnn1-c1ccc(Cl)cc1Cl` get here?
class 0

Just curious, what result did `CCSc1nnc(N)s1` get here?
class 0

----------
test: chemical genetic growth profiling, strain panel (AID 1159580);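 also: tested at 20 µM; growth read once vehicle control cultures reached saturation at 30 °C; 1 = growth at the plate median or of vehicle wells; lower values mean less growth of the strain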; details: S. cerevisiae deletion strains, growth OD, locus YER155C, strain BEM2
Screen size: about 5,500 compounds; about 2,000 (36%) were called active. Not shown: some 18% with an inconclusive outcome. No stated cut-off is given here; in the data, active means normalized growth mostly below about 0.91 (no sharp cut-off); inconclusive means no clear call, values can overlap the other calls; inactive means mostly above about 0.92. The list shows a part of the results.
# output must be one of yes (1) (active), no (0) (inactive)

Just curious, what result did `Nc1nc2ncc(C(=O)O)nc2c(=O)[nH]1` get here?
no (0)

Just curious, what result did `Cc1occc(=O)c1O` get here?
no (0)

Just curious, what result did `Cc1occc(=O)c1/C=C/O` get here?
no (0)

Just curious, what result did `c1ccc2c3c([nH]c2c1)CNCC3` get here?
no (0)

Just curious, what result did `Oc1c(Cl)cc(Cl)c2cccnc12` get here?
yes (1)

Just curious, what result did `Oc1c(Br)cc(Br)c2cccnc12` get here?
yes (1)

Just curious, what result did `Oc1ccc(Cl)c2cccnc12` get here?
yes (1)

----------
assay: chemical genetic growth profiling, strain panel (AID 1159580);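 also: tested at 20 µM; growth read once vehicle control cultures reached saturation at 30 °C; 1 = growth at the plate median or of vehicle wells; lower values mean less growth of the strain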; conditions: S. cerevisiae deletion strains, growth OD, locus YJL129C, strain trk1
Screen size: about 5,500 compounds; about 2,000 (36%) were called active. Not shown: some 18% with an inconclusive outcome. Rule as the data show it: active = normalized growth mostly below about 0.91 (no sharp cut-off); inconclusive = no clear call, values can overlap the other calls; inactive = mostly above about 0.92. The list shows a part of the results.
# output must be one of active, inactive

Just curious, what result did O=C1C=CC2=C3c4cc(O)c(O)cc4CC3(O)COC2=C1O (configuration not stated) get here?
inactive

Just curious, what result did `Cc1ccsc1/C=C/C1=NCCCN1C` get here?
inactive

Just curious, what result did CC1(C)CCCC2(C)C3C1[C@@H](O)C2(C)C[C@H]3O (some centres not stated) get here?
inactive

Just curious, what result did `O=C(O)/C=C/C=C/c1ccccc1` get here?
active

Just curious, what result did `CS(=O)(=O)CCCCN=C=S` get here?
active

Just curious, what result did C=CC(C1=CC(=O)C=CC1=O)c1ccccc1 (configuration not stated) get here?
inactive

Just curious, what result did `C=C(CC)C(=O)c1ccc(OCC(=O)O)c(Cl)c1Cl` get here?
inactive

Just curious, what result did `Nc1ncn([C@@H]2O[C@H](CO)[C@@H](O)[C@H]2O)c(=O)n1` get here?
inactive

Just curious, what result did `Nc1ccc(S(=O)(=O)Nc2ccccn2)cc1` get here?
inactive

Just curious, what result did `COc1cc2c(c(OC)c1OC)-c1ccc(OC)c(=O)cc1[C@@H](NC(C)=O)CC2` get here?
inactive

Just curious, what result did CCCCC(CC)CN1CN(CC(CC)CCCC)CC(C)(N)C1 (configuration not stated) get here?
active

Just curious, what result did CCCC1O[C@@H]2CC3C4CCC5=CC(=O)C=CC5(C)C4[C@@H](O)CC3(C)[C@]2(C(=O)CO)O1 (some centres not stated) get here?
inactive
